# kHydrolysis (Hz) per record follows
# Test system: LAETG (Abz-LAETGK(Dnp)-CONH2)
# experiment: In vitro sortase kinetics HPLC assay, LAETG substrate
# Type: biochemical
# conditionInfo: substrate 2A (LAETG), 1 mM; GGG varied
endpointName: kHydrolysis (Hz)

1) 2A.6C: 5mut + A104H K138P K152I D160K* K162R I182V (protein) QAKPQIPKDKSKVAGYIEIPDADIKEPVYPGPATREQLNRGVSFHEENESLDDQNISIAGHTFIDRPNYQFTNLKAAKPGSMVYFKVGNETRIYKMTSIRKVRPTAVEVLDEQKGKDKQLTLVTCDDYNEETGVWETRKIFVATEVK = 0.01048
2) 2A.6A: 5mut + A104H K138V K162R I182V (protein) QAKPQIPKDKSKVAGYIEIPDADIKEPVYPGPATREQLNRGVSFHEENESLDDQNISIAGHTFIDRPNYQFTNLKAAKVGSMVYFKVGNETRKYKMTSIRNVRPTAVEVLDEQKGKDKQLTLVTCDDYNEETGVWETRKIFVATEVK = 0.2252
3) eSrtA(2A-5): 5mut + R99H A104H K138I K162R I182V (protein) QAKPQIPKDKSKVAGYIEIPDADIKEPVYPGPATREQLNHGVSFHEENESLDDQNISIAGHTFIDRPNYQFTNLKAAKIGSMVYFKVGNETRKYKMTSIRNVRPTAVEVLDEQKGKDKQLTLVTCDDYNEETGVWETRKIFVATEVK = 0.324
